# assayTarget: full length p300 (Homo sapiens (Human))
# Sequence (Q09472 whole entry): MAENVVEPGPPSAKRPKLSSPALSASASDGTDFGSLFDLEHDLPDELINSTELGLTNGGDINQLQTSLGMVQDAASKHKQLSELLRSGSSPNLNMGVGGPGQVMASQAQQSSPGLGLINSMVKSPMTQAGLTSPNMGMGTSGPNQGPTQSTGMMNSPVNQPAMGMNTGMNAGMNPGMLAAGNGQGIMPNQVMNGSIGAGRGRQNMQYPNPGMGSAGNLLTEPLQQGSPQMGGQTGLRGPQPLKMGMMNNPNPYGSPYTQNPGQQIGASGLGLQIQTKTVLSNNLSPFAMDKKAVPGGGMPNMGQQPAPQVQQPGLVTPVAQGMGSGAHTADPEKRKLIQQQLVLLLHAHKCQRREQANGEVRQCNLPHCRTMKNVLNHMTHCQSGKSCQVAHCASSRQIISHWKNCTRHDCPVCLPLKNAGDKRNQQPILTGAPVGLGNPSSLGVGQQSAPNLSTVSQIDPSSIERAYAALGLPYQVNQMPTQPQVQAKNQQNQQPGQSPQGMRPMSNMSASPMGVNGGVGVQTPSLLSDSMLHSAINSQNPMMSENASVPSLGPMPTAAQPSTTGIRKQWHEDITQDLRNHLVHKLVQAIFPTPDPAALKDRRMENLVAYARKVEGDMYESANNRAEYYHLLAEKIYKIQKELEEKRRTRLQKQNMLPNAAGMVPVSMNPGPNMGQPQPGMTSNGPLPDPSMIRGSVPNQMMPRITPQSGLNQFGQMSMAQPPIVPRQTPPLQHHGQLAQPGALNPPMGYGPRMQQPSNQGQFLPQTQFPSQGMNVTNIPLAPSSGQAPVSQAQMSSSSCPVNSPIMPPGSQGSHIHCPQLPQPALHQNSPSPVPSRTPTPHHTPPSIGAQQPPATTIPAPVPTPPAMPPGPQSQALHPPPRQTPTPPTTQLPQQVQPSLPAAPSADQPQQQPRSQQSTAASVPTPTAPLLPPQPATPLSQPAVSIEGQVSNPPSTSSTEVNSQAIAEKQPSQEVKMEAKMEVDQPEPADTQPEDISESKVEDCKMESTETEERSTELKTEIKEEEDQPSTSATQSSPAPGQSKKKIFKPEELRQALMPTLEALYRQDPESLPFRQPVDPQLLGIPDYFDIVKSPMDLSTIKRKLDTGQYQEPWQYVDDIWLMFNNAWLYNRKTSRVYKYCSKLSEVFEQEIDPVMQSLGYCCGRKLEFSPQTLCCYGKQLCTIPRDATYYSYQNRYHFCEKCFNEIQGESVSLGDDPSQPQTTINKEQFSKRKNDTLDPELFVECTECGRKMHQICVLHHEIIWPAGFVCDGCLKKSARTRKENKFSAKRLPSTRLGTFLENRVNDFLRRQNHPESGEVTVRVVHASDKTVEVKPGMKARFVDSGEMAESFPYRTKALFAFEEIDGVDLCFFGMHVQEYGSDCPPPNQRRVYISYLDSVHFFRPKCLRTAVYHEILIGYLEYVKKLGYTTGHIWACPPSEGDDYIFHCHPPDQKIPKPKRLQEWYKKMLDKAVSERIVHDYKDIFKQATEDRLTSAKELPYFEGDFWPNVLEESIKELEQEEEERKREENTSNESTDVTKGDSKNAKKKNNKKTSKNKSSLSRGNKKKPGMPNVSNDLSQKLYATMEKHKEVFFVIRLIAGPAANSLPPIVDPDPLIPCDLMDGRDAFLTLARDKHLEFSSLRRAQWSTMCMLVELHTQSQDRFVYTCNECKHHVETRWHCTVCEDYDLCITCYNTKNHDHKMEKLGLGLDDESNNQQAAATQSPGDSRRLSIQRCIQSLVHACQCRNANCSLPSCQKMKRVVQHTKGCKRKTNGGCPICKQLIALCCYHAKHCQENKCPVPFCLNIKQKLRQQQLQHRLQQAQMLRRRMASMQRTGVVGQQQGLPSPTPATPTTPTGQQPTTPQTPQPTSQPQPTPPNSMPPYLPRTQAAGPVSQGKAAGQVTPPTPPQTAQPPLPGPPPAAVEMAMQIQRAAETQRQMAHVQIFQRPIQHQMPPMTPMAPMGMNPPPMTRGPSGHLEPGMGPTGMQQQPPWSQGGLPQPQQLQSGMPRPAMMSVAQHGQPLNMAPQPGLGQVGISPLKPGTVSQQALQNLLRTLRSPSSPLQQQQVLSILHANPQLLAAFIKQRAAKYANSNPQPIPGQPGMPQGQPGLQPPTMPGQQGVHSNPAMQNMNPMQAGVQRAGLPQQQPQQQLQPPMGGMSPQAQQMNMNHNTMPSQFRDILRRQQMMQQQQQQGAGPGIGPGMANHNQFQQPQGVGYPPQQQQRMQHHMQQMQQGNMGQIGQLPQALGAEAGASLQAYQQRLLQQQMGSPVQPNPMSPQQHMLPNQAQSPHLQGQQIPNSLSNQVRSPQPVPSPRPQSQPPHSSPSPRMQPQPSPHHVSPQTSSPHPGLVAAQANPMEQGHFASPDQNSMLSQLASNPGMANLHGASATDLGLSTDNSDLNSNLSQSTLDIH
valueKind: IC50 (nM)
The response must be a number in nM with no trailing unit.

molecule: CN1CCC(Oc2ccc3c(C(=O)C(NCCc4ccc(C#N)cc4)c4ccccc4)c[nH]c3c2)CC1 (single isomer, unassigned) [126 Isomer 2]
valueKind: IC50
unit: nM
numericResult: 2.19

molecule: Cc1[nH]c2ccccc2c1C(=O)C(NCCc1ccc(S(N)(=O)=O)cc1)c1ccccc1 (single isomer, unassigned) [16 Isomer 2]
valueKind: IC50
unit: nM
numericResult: 378

Query O=C(c1c[nH]c2ccccc12)C(NCCc1ccccn1)c1ccccc1 (single isomer, unassigned) [9 Isomer 2] on full length p300 (Homo sapiens (Human)); IC50 returned: 728
